B1: LOXL2 (parent)
chain: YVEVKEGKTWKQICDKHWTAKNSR

variants of: B1; experiment: protein stability index of a GFP-peptide fusion (GPS, HEK-293T) (PSI 1-6); higher = more stable; settings: c terminus: a fixed tail appended;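 also: lentivirally expressed fusions sorted by FACS into six bins by GFP to DsRed ratio, PSI derived from sequencing read proportions per bin multiplied by bin number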
Attribute: protein stability index
Please reply with the value in numeric form only.

Reference set, count: 4
>>> measured_value("W18S")
2.05
>>> measured_value("V4G")
2.86
>>> measured_value("H17G")
3.27
>>> measured_value("T19H")
1.78

Ask | protein stability index for "A20G" ?
Reply | 1.75

Ask | I have this variant here, "Y1W" , and I need its recorded protein stability index.
Reply | 2.29

Ask | Form field: reported protein stability index of "S23I"
Reply | 2.82

Ask | Param item = "K21D" ; retrieve measured protein stability index.
Reply | 2.34

Ask | Given "A20E" , state its recorded protein stability index.
Reply | 1.98

Ask | protein stability index lookup needed for "N22H" , thanks.
Reply | 2.99

Ask | Find the recorded protein stability index belonging to "S23A" and report it.
Reply | 2.97

Ask | What does the record list as protein stability index for "E6T" ?
Reply | 2.77

Ask | I'd like to know its protein stability index. The variant in question is "A20K"
Reply | 2.25

Ask | Find the recorded protein stability index belonging to "C14L" and report it.
Reply | 1.8

Ask | Entry "V4W" has what protein stability index?
Reply | 1.39
